Taken from ChEMBL document CHEMBL1641573.

# measured.target: Alpha-2A adrenergic receptor (Homo sapiens) (UniProt P08913)
# test.description: Agonist activity at human recombinant alpha2A adrenergic receptor expressed in CHO cells assessed as induction of [35S]GTPgammaS binding after 60 mins by scintillation counting relative to noradrenaline
# Format: functional, cell-based
Binary classification by Intrinsic activity, with 40% as an inclusive lower bound for 1; all other cases are -1.

> print(dat)
                    smiles.notation  class.assignment
1    Cl.c1ccc2c(N=C3NCCN3)n[nH]c2c1                 1
2        Clc1cccc2cnn(N=C3NCCN3)c12                 1
3  Cl.Clc1cccc2[nH]nc(N=C3NCCN3)c12                -1
4          c1ccc2c(c1)cnn2N=C1NCCN1                -1
5         Cc1cccc2cnn(N=C3NCCN3)c12                -1
6    Cc1cccc([C@H](C)c2c[nH]cn2)c1C                 1
7  Cl.Clc1cccc2c(N=C3NCCN3)n[nH]c12                 1

Please examine the following record next.
Query block: Kindly determine if Intrinsic activity recorded for `Clc1cccc2c1cnn2N=C1NCCN1` is above or exactly 40%.
Result block: 1

----------
# Species: Rattus norvegicus
# test.description: Selectivity ratio of IC50 for imidazoline I1 receptor in Sprague-Dawley rat kidney membrane to Ki for alpha2 adrenergic receptor in Sprague-Dawley rat brain membrane
# Assay type: cell membranes
quantity.measured: Ratio
Give bare numbers.

The examples below pair each entry with its known result.
> print(dat)
                    smiles.notation  experimental.value
1  Brc1cccc2[nH]nc(N=C3NCCN3)c12.Cl                   1
2  Cl.Clc1cccc2c(N=C3NCCN3)n[nH]c12                  30
3    Cl.c1ccc2c(N=C3NCCN3)n[nH]c2c1                  82
4  Cl.Clc1cccc2[nH]nc(N=C3NCCN3)c12                 115
5  Cl.Clc1ccc2c(N=C3NCCN3)n[nH]c2c1                   4

Value sought for every listed compound: Ratio.
1. Cc1ccc2c(N=C3NCCN3)n[nH]c2c1.Cl
2. COc1cccc2[nH]nc(N=C3NCCN3)c12.Cl

Result block:
94.3
34

Value sought for every listed compound: Ratio.
1. Cc1cccc2[nH]nc(N=C3NCCN3)c12.Cl
2. Cc1ccc2[nH]nc(N=C3NCCN3)c2c1.Cl

Result block:
690
2

----------
Kindly state pIC50 for each of the entries shown.
# measured.target: Nischarin (Rattus norvegicus, UniProt Q4G017)
# Sequence (Q4G017 whole entry): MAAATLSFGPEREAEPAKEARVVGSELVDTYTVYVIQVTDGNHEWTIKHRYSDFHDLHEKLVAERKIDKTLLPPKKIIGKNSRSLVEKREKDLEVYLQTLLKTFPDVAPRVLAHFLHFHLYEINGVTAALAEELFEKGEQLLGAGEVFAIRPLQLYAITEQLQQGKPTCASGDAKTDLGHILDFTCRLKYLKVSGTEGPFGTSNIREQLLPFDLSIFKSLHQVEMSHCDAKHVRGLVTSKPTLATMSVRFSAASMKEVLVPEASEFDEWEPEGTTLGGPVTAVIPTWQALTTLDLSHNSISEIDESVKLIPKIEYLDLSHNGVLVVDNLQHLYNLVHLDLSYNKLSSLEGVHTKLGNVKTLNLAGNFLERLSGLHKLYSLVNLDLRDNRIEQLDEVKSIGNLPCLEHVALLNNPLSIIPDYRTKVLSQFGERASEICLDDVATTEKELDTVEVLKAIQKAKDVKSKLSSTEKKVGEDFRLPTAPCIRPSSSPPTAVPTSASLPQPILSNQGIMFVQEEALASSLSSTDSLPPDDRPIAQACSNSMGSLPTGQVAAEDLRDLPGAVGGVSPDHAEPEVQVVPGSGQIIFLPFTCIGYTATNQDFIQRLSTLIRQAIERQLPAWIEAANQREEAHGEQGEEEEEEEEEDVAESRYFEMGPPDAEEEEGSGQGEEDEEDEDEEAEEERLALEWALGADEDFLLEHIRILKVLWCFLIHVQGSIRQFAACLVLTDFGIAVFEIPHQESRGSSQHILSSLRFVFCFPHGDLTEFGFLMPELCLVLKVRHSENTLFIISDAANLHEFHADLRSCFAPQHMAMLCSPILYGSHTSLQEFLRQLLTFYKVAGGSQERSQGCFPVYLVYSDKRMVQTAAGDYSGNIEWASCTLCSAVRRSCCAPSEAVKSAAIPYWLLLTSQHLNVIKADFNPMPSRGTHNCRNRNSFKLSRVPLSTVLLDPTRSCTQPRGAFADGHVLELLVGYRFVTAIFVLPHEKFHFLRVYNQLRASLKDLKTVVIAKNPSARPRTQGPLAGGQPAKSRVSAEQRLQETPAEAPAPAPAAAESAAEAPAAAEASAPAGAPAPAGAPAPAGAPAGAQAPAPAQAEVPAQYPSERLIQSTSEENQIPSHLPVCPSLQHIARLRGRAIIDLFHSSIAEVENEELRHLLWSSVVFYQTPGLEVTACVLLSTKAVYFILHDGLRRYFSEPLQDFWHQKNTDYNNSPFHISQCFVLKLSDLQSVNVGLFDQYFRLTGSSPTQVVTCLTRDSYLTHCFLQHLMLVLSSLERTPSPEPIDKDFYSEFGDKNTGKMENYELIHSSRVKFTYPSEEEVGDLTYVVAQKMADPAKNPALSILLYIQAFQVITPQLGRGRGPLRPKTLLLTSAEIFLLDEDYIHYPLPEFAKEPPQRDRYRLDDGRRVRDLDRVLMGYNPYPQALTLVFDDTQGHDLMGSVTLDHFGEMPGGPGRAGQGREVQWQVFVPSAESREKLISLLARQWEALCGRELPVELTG
# test.description: Displacement of [3H]clonidine from imidazoline I1 receptor in Sprague-Dawley rat kidney membrane after 45 mins by liquid scintillation counting
Give bare numbers, as −log10 of the molar value.

The examples below pair each entry with its known result.
> print(dat)
                    smiles.notation  experimental.value
1  Cl.Clc1cccc2[nH]nc(N=C3NCCN3)c12                5.74
2   Cc1cccc2[nH]nc(N=C3NCCN3)c12.Cl                4.49

Value sought for every listed molecule: pIC50.
1. Cl.Clc1cccc2c(N=C3NCCN3)n[nH]c12
2. Cc1ccc2[nH]nc(N=C3NCCN3)c2c1.Cl
3. COc1cccc2[nH]nc(N=C3NCCN3)c12.Cl
4. Cl.Clc1ccc2c(N=C3NCCN3)n[nH]c2c1
5. Brc1cccc2[nH]nc(N=C3NCCN3)c12.Cl
6. Cl.c1ccc2c(N=C3NCCN3)n[nH]c2c1
7. Cc1ccc2c(N=C3NCCN3)n[nH]c2c1.Cl

Result block:
1: 5.40; 2: 4.67; 3: 4.59; 4: 5.70; 5: 5.12; 6: 5.49; 7: 4.78

----------
# measured.target: Alpha-2A adrenergic receptor (Homo sapiens, UniProt P08913)
# Sequence (P08913 whole entry): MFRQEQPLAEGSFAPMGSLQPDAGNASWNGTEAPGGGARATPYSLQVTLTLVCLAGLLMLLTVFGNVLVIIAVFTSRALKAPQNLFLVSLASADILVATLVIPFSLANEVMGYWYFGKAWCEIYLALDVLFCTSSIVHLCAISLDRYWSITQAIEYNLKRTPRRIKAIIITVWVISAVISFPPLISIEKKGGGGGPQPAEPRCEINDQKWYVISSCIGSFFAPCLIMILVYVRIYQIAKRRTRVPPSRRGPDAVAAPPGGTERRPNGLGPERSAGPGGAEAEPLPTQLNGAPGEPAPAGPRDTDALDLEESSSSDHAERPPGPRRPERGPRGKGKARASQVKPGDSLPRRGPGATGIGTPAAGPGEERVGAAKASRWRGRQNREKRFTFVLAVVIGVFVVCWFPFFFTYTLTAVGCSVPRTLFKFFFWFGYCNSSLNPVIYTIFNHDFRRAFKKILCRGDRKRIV
# test.description: Agonist activity at human recombinant alpha2A adrenergic receptor expressed in CHO cells assessed as induction of [35S]GTPgammaS binding after 60 mins by scintillation counting
Kindly state EC50 for each of the entries shown.
Give bare numbers, in nM.

The examples below pair each entry with its known result.
> print(dat)
                   smiles.notation                           measured.target  experimental.value
1       Clc1cccc2cnn(N=C3NCCN3)c12  Alpha-2A adrenergic receptor (Homo sapiens, UniProt P08913)                  15
2   Cl.c1ccc2c(N=C3NCCN3)n[nH]c2c1  Alpha-2A adrenergic receptor (Homo sapiens, UniProt P08913)                  82
3  Cc1cccc2[nH]nc(N=C3NCCN3)c12.Cl  Alpha-2A adrenergic receptor (Homo sapiens, UniProt P08913)                  14
4         c1ccc2c(c1)cnn2N=C1NCCN1  Alpha-2A adrenergic receptor (Homo sapiens, UniProt P08913)                 160
5        Cc1cccc2cnn(N=C3NCCN3)c12  Alpha-2A adrenergic receptor (Homo sapiens, UniProt P08913)                  37

Value sought for every listed compound: EC50.
1. Cl.Clc1cccc2c(N=C3NCCN3)n[nH]c12
2. Clc1cccc2c1cnn2N=C1NCCN1
3. Cl.Clc1cccc2[nH]nc(N=C3NCCN3)c12

Result block:
73
180
240

----------
# measured.target: Adrenergic receptor alpha-2 (Rattus norvegicus, UniProt P22086+P19328+P22909)
# test.description: Displacement of [3H]RX821002 from alpha2 adrenergic receptor in Sprague-Dawley rat brain membrane after 45 mins by liquid scintillation counting
# Assay type: cell membranes
Binarize Ki at 200 nM; below is Condition met, at or above is Condition not met.

Please review the entries below; each comes with its answer.
> print(dat)
                    smiles.notation   class.assignment
1   Cc1cccc2[nH]nc(N=C3NCCN3)c12.Cl      Condition met
2  Cl.Clc1cccc2c(N=C3NCCN3)n[nH]c12      Condition met
3  COc1cccc2[nH]nc(N=C3NCCN3)c12.Cl  Condition not met
4    Cl.c1ccc2c(N=C3NCCN3)n[nH]c2c1      Condition met
5   Cc1ccc2[nH]nc(N=C3NCCN3)c2c1.Cl  Condition not met
6  Cl.Clc1ccc2c(N=C3NCCN3)n[nH]c2c1  Condition not met
7   Cc1ccc2c(N=C3NCCN3)n[nH]c2c1.Cl      Condition met
8  Cl.Clc1ccc2[nH]nc(N=C3NCCN3)c2c1  Condition not met

Query block: Would you kindly verify if Ki of `COc1ccc2[nH]nc(N=C3NCCN3)c2c1.Cl` is strictly less than 200 nM?
Result block: Condition not met

Query block: Would you kindly verify if Ki of `Cl.Clc1cccc2[nH]nc(N=C3NCCN3)c12` is strictly less than 200 nM?
Result block: Condition met

Query block: Would you kindly verify if Ki of `Brc1cccc2[nH]nc(N=C3NCCN3)c12.Cl` is strictly less than 200 nM?
Result block: Condition not met

----------
# measured.target: Adrenergic receptor alpha-1 (Rattus norvegicus, UniProt P15823+P23944+P43140)
# test.description: Displacement of [3H]prazosin from alpha1 adrenergic receptor in Sprague-Dawley rat brain membrane after 45 mins by liquid scintillation counting
# Type: cell membranes
Binarize Ki at 200 nM; below is 1, at or above is 0.

Please review the entries below; each comes with its answer.
> print(dat)
                    smiles.notation                           measured.target  class.assignment
1  Cl.Clc1cccc2[nH]nc(N=C3NCCN3)c12  Adrenergic receptor alpha-1 (Rattus norvegicus, UniProt P15823+P23944+P43140)                 1
2  Cl.Clc1ccc2c(N=C3NCCN3)n[nH]c2c1  Adrenergic receptor alpha-1 (Rattus norvegicus, UniProt P15823+P23944+P43140)                 0
3  Cl.Clc1cccc2c(N=C3NCCN3)n[nH]c12  Adrenergic receptor alpha-1 (Rattus norvegicus, UniProt P15823+P23944+P43140)                 0
4   Cc1cccc2[nH]nc(N=C3NCCN3)c12.Cl  Adrenergic receptor alpha-1 (Rattus norvegicus, UniProt P15823+P23944+P43140)                 1
5  Brc1cccc2[nH]nc(N=C3NCCN3)c12.Cl  Adrenergic receptor alpha-1 (Rattus norvegicus, UniProt P15823+P23944+P43140)                 0

Please examine the following record next.
Query block: Would you kindly verify if Ki of `COc1ccc2[nH]nc(N=C3NCCN3)c2c1.Cl` is strictly less than 200 nM?
Result block: 0
